- tgt: Glutaminyl-peptide cyclotransferase (Homo sapiens)
- Sequence (Q16769 whole entry): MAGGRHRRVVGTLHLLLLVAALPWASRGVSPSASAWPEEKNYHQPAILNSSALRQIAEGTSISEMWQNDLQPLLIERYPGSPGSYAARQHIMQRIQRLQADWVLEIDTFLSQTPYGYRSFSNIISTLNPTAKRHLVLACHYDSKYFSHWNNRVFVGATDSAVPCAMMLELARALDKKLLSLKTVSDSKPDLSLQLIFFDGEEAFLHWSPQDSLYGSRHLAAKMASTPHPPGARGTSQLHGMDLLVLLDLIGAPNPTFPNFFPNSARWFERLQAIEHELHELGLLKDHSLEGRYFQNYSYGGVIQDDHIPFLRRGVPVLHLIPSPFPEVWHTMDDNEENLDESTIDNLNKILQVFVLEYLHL
Reported pIC50 values for the following compounds.
Convention used: pIC50 is expressed as -log10 of the molar concentration.

# count of solved cases: 6
           structure                                       tgt  reported_measurement
0    Oc1cccc2cccnc12  Glutaminyl-peptide cyclotransferase (Homo sapiens)                  3.68
1  Sc1nc2ccccc2[nH]1  Glutaminyl-peptide cyclotransferase (Homo sapiens)                  3.26
2        Cc1c[nH]cn1  Glutaminyl-peptide cyclotransferase (Homo sapiens)                  3.96
3        O=c1ccocc1O  Glutaminyl-peptide cyclotransferase (Homo sapiens)                  3.63
4     Cn1cccc(O)c1=O  Glutaminyl-peptide cyclotransferase (Homo sapiens)                  3.11
5         Oc1ccccc1O  Glutaminyl-peptide cyclotransferase (Homo sapiens)                  5.30

Shifting focus to the compound that follows.
*Q* Please tell me: pIC50 of Cc1cncn1-c1ccccc1 , system Glutaminyl-peptide cyclotransferase (Homo sapiens)?
*A* 3.84

Data origin, for the record: ChEMBL document CHEMBL5143758
